- Test system: Botrytis cinerea
- test.name: Fungicidal activity against Botrytis cinerea, mycelial growth inhibition on PDA plate
- Format: cell-based
- experimental.parameters: Botrytis cinerea, 1.255 mg/L, Table 8; read-out: activities against Botrytis cinerea (growth inhibition)
measurement.type: inhibition at 1.255 µg/mL
Field note: include the unit after the figure.

Example entries begin here.
> print(dat)
                                   compound           measurement.type  value.observed
1  COC(=O)NC(=S)Nc1ccccc1NC(=S)NC(=O)OC [Thiophanate-Methyl, reference compound]  inhibition at 1.255 µg/mL             93%
2  CC12CC1(C)C(=O)N(c1cc(Cl)cc(Cl)c1)C2=O (stereo not shown) [Procymidone, reference compound]  inhibition at 1.255 µg/mL             83%
3  CCOc1ccc([N+](=O)[O-])c(N(CC)Cc2cnc(Cl)s2)n1  inhibition at 1.255 µg/mL             82%

# compound CCN(Cc1cnc(Cl)s1)c1nc(OC)ccc1[N+](=O)[O-] ; its inhibition at 1.255 µg/mL = 94%

###

- Test system: Botrytis cinerea
- test.name: Fungicidal activity against Botrytis cinerea, mycelial growth inhibition on PDA plate
- Format: cell-based
- experimental.parameters: Botrytis cinerea, 0.1562 mg/L, Table 8; read-out: activities against Botrytis cinerea (growth inhibition)
Listed here: items and their measured inhibition at 0.1562 µg/mL.
The reply should be a number in %, with the unit left off.

# compound CC12CC1(C)C(=O)N(c1cc(Cl)cc(Cl)c1)C2=O (stereo not shown) [Procymidone, reference compound] ; its inhibition at 0.1562 µg/mL = 46

# compound COC(=O)NC(=S)Nc1ccccc1NC(=S)NC(=O)OC [Thiophanate-Methyl, reference compound] ; its inhibition at 0.1562 µg/mL = 18

# compound CCOc1ccc([N+](=O)[O-])c(N(CC)Cc2cnc(Cl)s2)n1 [Compound 04] ; its inhibition at 0.1562 µg/mL = 63

# compound CCN(Cc1cnc(Cl)s1)c1nc(OC)ccc1[N+](=O)[O-] [Compound 05] ; its inhibition at 0.1562 µg/mL = 78

###

Listed here: items and their measured inhibition at 5 µg/mL.
- System: Botrytis cinerea
- test.name: Fungicidal activity against Botrytis cinerea, mycelial growth inhibition on PDA plate
- Type: cell-based
- experimental.parameters: Botrytis cinerea, 5 mg/L, Table 8; read-out: activities against Botrytis cinerea (growth inhibition)
The reply should be a number in %, with the unit left off.

Example entries begin here.
> print(dat)
                                   compound      assay.system  value.observed
1  CC12CC1(C)C(=O)N(c1cc(Cl)cc(Cl)c1)C2=O (stereo not shown) [Procymidone, reference compound]  Botrytis cinerea             100
2  CCOc1ccc([N+](=O)[O-])c(N(CC)Cc2cnc(Cl)s2)n1  Botrytis cinerea              90
3  COC(=O)NC(=S)Nc1ccccc1NC(=S)NC(=O)OC [Thiophanate-Methyl, reference compound]  Botrytis cinerea             100

Now take the following compound into account.
# compound CCN(Cc1cnc(Cl)s1)c1nc(OC)ccc1[N+](=O)[O-] ; its inhibition at 5 µg/mL = 100

###

- System: Botrytis cinerea
- test.name: Fungicidal activity against Botrytis cinerea, mycelial growth inhibition on PDA plate
- Assay type: cell-based
- experimental.parameters: Botrytis cinerea, 2.5 mg/L, Table 8; read-out: activities against Botrytis cinerea (growth inhibition)
measurement.type: inhibition at 2.5 µg/mL (%)
The reply should be a number in %, with the unit left off.

> print(dat)
                                   compound  value.observed
1  COC(=O)NC(=S)Nc1ccccc1NC(=S)NC(=O)OC [Thiophanate-Methyl, reference compound]              98
2  CCOc1ccc([N+](=O)[O-])c(N(CC)Cc2cnc(Cl)s2)n1              87
3  CC12CC1(C)C(=O)N(c1cc(Cl)cc(Cl)c1)C2=O (stereo not shown) [Procymidone, reference compound]              93

# compound CCN(Cc1cnc(Cl)s1)c1nc(OC)ccc1[N+](=O)[O-] ; its inhibition at 2.5 µg/mL = 98
